From: paper PMC4409382

Reported pKd values follow for various binders
- TESTED SYSTEM: T1, 14-3-3ζ K49A (human, UniProt P63104 1-245, K49A)
- T1 construct: N-terminal glycine retained after TEV cleavage of the His tag; 14-3-3 zeta, human, with the K49A mutation introduced into 14-3-3ζ (the full-length construct); they say that all 14-3-3ζ constructs were purified in the same way; source: E. coli, purified (Ni Sepharose, TEV cleavage, second Ni Sepharose pass); not shown: His tag, N-terminal, cleaved
- T1 sequence: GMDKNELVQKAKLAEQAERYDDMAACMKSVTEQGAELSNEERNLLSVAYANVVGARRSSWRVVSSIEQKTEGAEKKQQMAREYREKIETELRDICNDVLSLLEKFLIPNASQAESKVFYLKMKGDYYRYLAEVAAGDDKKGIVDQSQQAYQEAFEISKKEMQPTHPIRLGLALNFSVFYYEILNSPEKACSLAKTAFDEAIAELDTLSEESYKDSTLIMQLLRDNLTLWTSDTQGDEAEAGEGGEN
- PROTOCOL TEXT: ITC; duplicate set of titrations; 5 uL aliquots of ~1-2 mM peptide titrated into the 1.4 mL cell with ~100-200 uM 14-3-3ζ; 25 °C; 50 mM sodium phosphate, 100 mM NaCl, 1 mM DTT, pH 6.8; one-site model; n per 14-3-3 monomer
- CONDITION CONTEXT: both partners purified
Square brackets hold non-standard residues; d marks the D form. Ends that are not written are not given here. pS = N[C@@H](COP(=O)(O)O)C(=O)O
Give only the number. pKd is defined as minus log10 of concentration in molar units.

>>> quantitative_result("KTPPRKSA[pS]LSNLHSLDR (Chibby (Cby), human, residues 12-29; also called Cby 18-mer WT; source: synthetic peptide, bought: GenScript USA Inc) [pCby 18-mer]")
5.26

Kindly consider the entry below.
Q. Give recorded pKd. KTPPRKSA[pS]LPNLHSLDR (Chibby (Cby), human, residues 12-29 with S22P; also called Cby 18-mer S22P; source: synthetic peptide, bought: TUFTS University Core Facility) [pCby S22P 18-mer]
A. 5.74
